This section presents pIC50 values reported for central CCK-B receptor (Cavia porcellus, UniProt H0VZC5) in the literature.
pIC50: −log10 of the molar value.
PROPERTY NAME: pIC50

O=C(O)CCCNC(=O)CC[C@@H](NC(=O)c1cc(Cl)cc(Cl)c1)C(=O)N1CCC2(CCCC2)CC1 | 5.90

a. CN1C(=O)[C@H](NC(=O)Nc2cccc(C3=C(O)CNC3=O)c2)N=C(C2CCCCC2)c2ccccc21
b. O=C(O)CNC(=O)CC[C@@H](NC(=O)c1cc(Cl)cc(Cl)c1)C(=O)N1CCC2(CCCC2)CC1
c. Cc1cccc(NC(=O)NC2CCc3ccccc3N(CC(=O)N3CCN(C)CC3)C2=O)c1 (stereo not shown)
d. O=C(O)C[C@H](Cc1ccccc1)NC(=O)CC[C@@H](NC(=O)c1cc(Cl)cc(Cl)c1)C(=O)N1CCC2(CCCC2)CC1
e. CC(Cc1ccccc1)(NC(=O)CC[C@@H](NC(=O)c1cc(Cl)cc(Cl)c1)C(=O)N1CCC2(CCCC2)CC1)C(=O)O (stereo partly shown)
-- ask Order the records by pIC50, with each subsequent value no larger than the one before. Use the labels to give the requested order.
-- reply a, d, e, b, c
(a: 9.17, d: 6.47, e: 6.24, b: 5.97, c: 5.30)

* * *

pIC50: −log10 of the molar value.
Collected literature values of pIC50 measured for UniProt:H0VZC5.
PROPERTY NAME: pIC50

As a guide, the following entries are already answered.
O=C(CC[C@@H](NC(=O)c1cc(Cl)cc(Cl)c1)C(=O)N1CCC2(CCCCC2)CC1)N[C@H](Cc1c[nH]c2ccccc12)C(=O)O | 7.00
O=C1C=C(Cl)C(O)(c2ccccc2)N1CCc1ccccc1 (stereo not shown) | 7.70
Cc1cc(C(=O)O)ccc1NC(=O)CC[C@@H](NC(=O)c1cc(Cl)cc(Cl)c1)C(=O)N1CCC2(CCCC2)CC1 | 5.56
O=C(O)Cc1ccc(NC(=O)CC[C@@H](NC(=O)c2cc(Cl)cc(Cl)c2)C(=O)N2CCC3(CCCC3)CC2)cc1 | 5.11
O=C(CC[C@@H](NC(=O)c1cc(Cl)cc(Cl)c1)C(=O)N1CCC2(CCCC2)CC1)NC(Cc1ccc(O)cc1)C(=O)O (stereo partly shown) | 6.49

a. Cc1ccc(NC(=O)NC2CCc3ccccc3N(CC(=O)OC(C)(C)C)C2=O)cc1 (stereo not shown)
b. O=C(CC[C@@H](NC(=O)c1cc(Cl)cc(Cl)c1)C(=O)N1CCC2(CCCC2)CC1)N[C@H](Cc1ccccn1)C(=O)O
c. Cc1cc(C)c(NC(=O)C[C@@H](CC(=O)O)c2cccc3ccccc23)c(C(=O)N2CCC3(CCCC3)CC2)c1
-- ask Ascending by pIC50, please. Note for the reader: the ranking is given by listing the labels in the order requested.
-- reply a, b, c

a. O=C(CC[C@@H](NC(=O)c1cc(Cl)cc(Cl)c1)C(=O)N1CCC2(CCCC2)CC1)N[C@H](Cc1ccccc1)C(=O)O
b. O=C(CC[C@@H](NC(=O)c1ccccc1)C(=O)N1CCC2(CCCC2)CC1)Nc1ccc(C(=O)O)cc1
-- ask Which record shows the lower pIC50: the first, a , or the second, b ? # reply format: chosen label
-- reply b

I. O=C(CC[C@@H](NC(=O)c1cc(Cl)cc(Cl)c1)C(=O)N1CCC2(CCCC2)CC1)N[C@H](Cc1cccc2ccccc12)C(=O)O
II. CSCCC(NC(=O)CC[C@@H](NC(=O)c1cc(Cl)cc(Cl)c1)C(=O)N1CCC2(CCCC2)CC1)C(=O)O (stereo partly shown)
-- ask Please let me know which one, I or II , has a lower measured pIC50 value. Return value: the label identifying the chosen record.
-- reply II

P. Cc1cc(C)c(NC(=O)C[C@H](CC(=O)O)c2cccc3ccccc23)c(C(=O)N2CCC3(CCCC3)CC2)c1
Q. O=C(N[C@@H]1C(=O)N(c2ccccc2)C[C@H]1C(=O)N1CCCC1)c1ccc2ccccc2c1 (relative stereo)
-- ask Hello, I am sorting some records. Could you say if P or Q has the smaller pIC50 value? Provide the label of your selected option as the answer.
-- reply Q

* * *

Assay read-out pIC50 on UniProtKB H0VZC5; records merged from the literature.
pIC50: −log10 of the molar value.
PROPERTY NAME: pIC50

Observe how each entry below is paired with its result.
COC(=O)[C@@H](N)Cc1cccc(NC(=O)N[C@@H]2N=C(C3CCCCC3)c3ccccc3N(C)C2=O)c1 | 8.04
CC(C)C[C@@H](NC(=O)OC(C)(C)C)C(=O)N1CC(C[C@@H]2NC(=O)c3ccccc3N3C(=O)c4ccccc4NC23)c2ccccc21 (single isomer, unassigned; isomer 2) | 4.00
O=C(C[C@@H](NC(=O)c1cc(Cl)cc(Cl)c1)C(=O)N1CCC2(CCCC2)CC1)N[C@H](Cc1ccccc1)C(=O)O | 6.46
O=C(N[C@H]1C(=O)N(c2ccccc2)C[C@H]1C(=O)O)c1cc2ccccc2[nH]1 (relative stereo) | 5.29
O=C(C[C@@H](NC(=O)c1cc(Cl)cc(Cl)c1)C(=O)N1CCC2(CCCC2)CC1)N[C@H](Cc1c[nH]c2ccccc12)C(=O)O | 5.99

A. CN1CC(O)=C(c2cccc(NC(=O)N[C@@H]3N=C(C4CCCCC4)c4ccccc4N(C)C3=O)c2)C1=O
B. O=C(O)CCNC(=O)CC[C@@H](NC(=O)c1cc(Cl)cc(Cl)c1)C(=O)N1CCC2(CCCC2)CC1
C. CC(C)(C)OC(=O)CN1C(=O)C(NC(=O)Nc2cccc3ccccc23)CCc2ccccc21 (centres unmarked)
-- ask # ascending order, key=pIC50 Output spec: labels arranged per the requested ranking.
-- reply B, C, A

* * *

Field IC50: reported value for central CCK-B receptor (Cavia porcellus, UniProt H0VZC5); entries drawn from several documents.
PROPERTY NAME: IC50 (nM)

Examples with answers:
Cc1cc(Cl)c(NC(=O)C[C@H](CC(=O)O)c2cccc3ccccc23)c(C(=O)N2CCC3(CCCC3)CC2)c1 | 2.5
O=C(CC[C@@H](NC(=O)c1cc(Cl)cc(Cl)c1)C(=O)N1CCC2(CCCC2)CC1)Nc1cccc(C(=O)O)c1 | 1390
CN(CC(=O)O)C(=O)CC[C@@H](NC(=O)c1cc(Cl)cc(Cl)c1)C(=O)N1CCC2(CCCC2)CC1 | 610
CCCCCN(CCCCC)C(=O)C(CCC(=O)OCc1ccccc1)NC(=O)Nc1ccc(Cl)cc1 (racemic) | 5300
CN1C(=O)C(NC(=O)Nc2cccc(C3=C(O)CSC3=O)c2)N=C(C2CCCCC2)c2ccccc21 (racemic) | 3.9

a. O=C(O)CC[C@@H](NC(=O)c1cc2ccccc2[nH]1)C(=O)N(C1CCCCC1)C1CCCCC1
b. CN1C(=O)[C@H](NC(=O)Nc2cccc(C[C@H](N)C(=O)O)c2)N=C(C2CCCCC2)c2ccccc21
c. COc1cccc(NC(=O)NC2CCc3ccccc3N(CC(=O)O)C2=O)c1 (centres unmarked)
d. O=C(CC[C@@H](NC(=O)c1cc(Cl)cc(Cl)c1)C(=O)N1CCC2(CCCC2)CC1)N[C@H](Cc1c[nH]c2ccccc12)C(=O)O
-- ask Returns the items ordered by IC50, from maximum to minimum. # the answer lists labels in the order requested
-- reply c, a, d, b

* * *

IC50 values for central CCK-B receptor (Cavia porcellus, UniProt H0VZC5), compiled from several publications.
PROPERTY NAME: IC50 (nM)

CN(C(=O)CC[C@@H](NC(=O)c1cc(Cl)cc(Cl)c1)C(=O)N1CCC2(CCCC2)CC1)[C@@H](Cc1c[nH]c2ccccc12)C(=O)O | 380

I. CC(C)CC(NC(=O)CC[C@@H](NC(=O)c1cc(Cl)cc(Cl)c1)C(=O)N1CCC2(CCCC2)CC1)C(=O)O (some centres unmarked)
II. O=C(Cc1ccccc1)Nc1cc2c(cn1)[nH]c1ccccc12
-- ask Short answer wanted: higher IC50, I or II ? Please reply using the label of the selected record.
-- reply II

1. O=C(CC[C@@H](NC(=O)c1cc(Cl)cc(Cl)c1)C(=O)N1CCC2(CCCC2)CC1)Nc1ccccc1C(=O)O
2. CN(C(=O)CC[C@@H](NC(=O)c1cc(Cl)cc(Cl)c1)C(=O)N1CCC2(CCCC2)CC1)[C@H](Cc1ccccc1)C(=O)O
3. CC(C)(C)OC(=O)CN1C(=O)C(NC(=O)Nc2ccc(Cl)cc2)CCc2ccccc21 (centres unmarked)
4. O=C1C=C(Cl)C(O)(c2ccccc2)N1C1CCCC1 (centres unmarked)
-- ask Sort low-to-high on IC50, please. Answer by listing the labels in the order asked for.
-- reply 2, 3, 1, 4

A. O=C(CC[C@@H](NC(=O)c1cc(Cl)cc(Cl)c1)C(=O)N1CCC2(CCCC2)CC1)N[C@H](Cc1ccc2ccccc2c1)C(=O)O
B. O=C(CC[C@@H](NC(=O)c1cc(Cl)cc(Cl)c1)C(=O)N1CCC2(CCCC2)CC1)NC(CCc1ccccc1)C(=O)O (some centres unmarked)
-- ask Which entry shows the lesser value of IC50 here, A or B ? Record your answer as the label of the chosen record.
-- reply A
(A: 130 nM, B: 300 nM)
